# Target Of Assay: Serine/threonine-protein kinase D3 (Homo sapiens, UniProt O94806); note: in the data inactive means no Kd found up to 30 µM
# Sequence (O94806 whole entry): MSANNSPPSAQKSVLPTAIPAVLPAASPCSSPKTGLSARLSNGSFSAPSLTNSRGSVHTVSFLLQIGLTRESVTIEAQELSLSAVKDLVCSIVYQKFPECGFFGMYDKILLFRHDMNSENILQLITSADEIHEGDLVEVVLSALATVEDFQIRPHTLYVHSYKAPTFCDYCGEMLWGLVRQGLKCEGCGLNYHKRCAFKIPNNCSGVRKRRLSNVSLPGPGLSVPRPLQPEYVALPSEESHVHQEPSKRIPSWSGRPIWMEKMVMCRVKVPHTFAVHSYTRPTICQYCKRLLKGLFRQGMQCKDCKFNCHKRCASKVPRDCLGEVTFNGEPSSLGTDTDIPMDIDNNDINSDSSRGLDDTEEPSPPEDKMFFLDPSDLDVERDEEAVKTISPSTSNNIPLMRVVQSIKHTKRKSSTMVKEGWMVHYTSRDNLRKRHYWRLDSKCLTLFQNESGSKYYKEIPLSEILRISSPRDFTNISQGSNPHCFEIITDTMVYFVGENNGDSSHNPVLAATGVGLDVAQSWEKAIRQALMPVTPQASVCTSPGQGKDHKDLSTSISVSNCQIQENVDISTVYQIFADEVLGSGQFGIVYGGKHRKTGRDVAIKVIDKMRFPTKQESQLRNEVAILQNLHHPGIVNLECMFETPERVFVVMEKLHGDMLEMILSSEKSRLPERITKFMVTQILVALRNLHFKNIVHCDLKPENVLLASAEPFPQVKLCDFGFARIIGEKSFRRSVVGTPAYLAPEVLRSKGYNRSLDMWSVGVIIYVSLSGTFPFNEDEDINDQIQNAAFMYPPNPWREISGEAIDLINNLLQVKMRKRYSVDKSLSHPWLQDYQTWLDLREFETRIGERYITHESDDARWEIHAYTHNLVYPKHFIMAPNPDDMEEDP
Calls of active or inactive are those of the source.
Outcome (select one): 1 = active, -1 = inactive

>  <Compound>
C[C@@H](Oc1cc(C(=O)Nc2ccc(C(=O)N3CCN(C)CC3)cc2)nnc1N)c1c(Cl)ccc(F)c1Cl

>  <Qualitative Label>
-1

$$$$
>  <Compound>
Cc1nc(NC(=O)N2CCC[C@H]2C(N)=O)sc1-c1ccnc(C(C)(C)C(F)(F)F)c1

>  <Qualitative Label>
-1

$$$$
>  <Compound>
Cn1cc(-c2cnn3c(N)c(Br)c([C@@H]4CCCNC4)nc23)cn1

>  <Qualitative Label>
-1

$$$$
>  <Compound>
CN1C/C=C/CCOc2cccc(c2)-c2ccnc(n2)Nc2cccc(c2)C1

>  <Qualitative Label>
1

$$$$
>  <Compound>
CCn1cc(-c2ccnc3[nH]c(-c4cccc(CN(C)C)c4)cc23)c(-c2ccc(NC(=O)N(C)C)cc2)n1

>  <Qualitative Label>
1

$$$$

// next entry
input: Could you please tell me the result logged for COCc1c(-c2ccc(NC(=O)Nc3cc(C(F)(F)F)ccc3F)c(F)c2)c2c(N)ncnn2c1CN1CCOCC1 in this assay?
output: -1

###

Collected Kd values appear next to each entry.
# Target Of Assay: TGF-beta receptor type-1 (Homo sapiens, UniProt P36897); note: in the data inactive means no Kd found up to 30 µM
# Sequence (P36897 whole entry): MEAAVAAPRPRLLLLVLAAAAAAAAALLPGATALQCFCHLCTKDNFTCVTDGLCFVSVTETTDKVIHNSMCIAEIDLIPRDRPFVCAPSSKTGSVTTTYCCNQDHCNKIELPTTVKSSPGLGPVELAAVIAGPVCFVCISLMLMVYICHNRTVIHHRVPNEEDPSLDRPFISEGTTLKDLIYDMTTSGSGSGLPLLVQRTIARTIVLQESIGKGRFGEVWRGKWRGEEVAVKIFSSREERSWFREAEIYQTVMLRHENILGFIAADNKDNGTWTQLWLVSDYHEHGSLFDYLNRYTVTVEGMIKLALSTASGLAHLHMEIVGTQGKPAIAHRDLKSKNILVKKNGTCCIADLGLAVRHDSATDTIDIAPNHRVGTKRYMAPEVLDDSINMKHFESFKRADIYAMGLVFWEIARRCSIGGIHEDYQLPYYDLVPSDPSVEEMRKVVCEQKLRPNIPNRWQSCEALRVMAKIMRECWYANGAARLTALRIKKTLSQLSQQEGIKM
Active and inactive are the calls of the source.

Some entries whose results are on file:
>  <Smiles>
CCOc1cc2ncc(C#N)c(Nc3ccc(F)c(Cl)c3)c2cc1NC(=O)/C=C/CN(C)C

>  <Value Reported>
> 30 µM (inactive)

$$$$
>  <Smiles>
CO[C@H]1C[C@@H]2CC[C@@H](C)[C@@](O)(O2)C(=O)C(=O)N2CCCC[C@H]2C(=O)O[C@H]([C@H](C)C[C@@H]2CC[C@@H](OP(C)(C)=O)[C@H](OC)C2)CC(=O)[C@H](C)/C=C(\C)[C@@H](O)[C@@H](OC)C(=O)[C@H](C)C[C@H](C)/C=C/C=C/C=C/1C

>  <Value Reported>
> 30 µM (inactive)

$$$$
>  <Smiles>
CN1C/C=C/CCOc2cccc(c2)-c2ccnc(n2)Nc2cccc(c2)C1

>  <Value Reported>
> 30 µM (inactive)

$$$$

Kindly consider the entry below.
input: Query Kd for Cc1cnc(NC(=O)Nc2cc(Br)c(C)cc2OC[C@@H]2CNCCO2)cn1
output: > 30 µM (inactive)
